protocol-description: Pharmacokinetics in rats
Assay type: in vivo
cond: Sprague-Dawley, rat, serum, ip; intraperitoneal 1.0 mg/kg, male SD rats

molecule	units-symbol	Cmax
Cn1c(=O)[nH]c2ccc(-c3cccc(C(=O)NC4CCn5ccnc5C4)c3)cc21 (stereo not shown) [Z36-MP5]	ng/mL	3960

---

system-under-test: recombinant purified human Mi-2β protein (Homo sapiens)
Sequence (Q14839 whole entry): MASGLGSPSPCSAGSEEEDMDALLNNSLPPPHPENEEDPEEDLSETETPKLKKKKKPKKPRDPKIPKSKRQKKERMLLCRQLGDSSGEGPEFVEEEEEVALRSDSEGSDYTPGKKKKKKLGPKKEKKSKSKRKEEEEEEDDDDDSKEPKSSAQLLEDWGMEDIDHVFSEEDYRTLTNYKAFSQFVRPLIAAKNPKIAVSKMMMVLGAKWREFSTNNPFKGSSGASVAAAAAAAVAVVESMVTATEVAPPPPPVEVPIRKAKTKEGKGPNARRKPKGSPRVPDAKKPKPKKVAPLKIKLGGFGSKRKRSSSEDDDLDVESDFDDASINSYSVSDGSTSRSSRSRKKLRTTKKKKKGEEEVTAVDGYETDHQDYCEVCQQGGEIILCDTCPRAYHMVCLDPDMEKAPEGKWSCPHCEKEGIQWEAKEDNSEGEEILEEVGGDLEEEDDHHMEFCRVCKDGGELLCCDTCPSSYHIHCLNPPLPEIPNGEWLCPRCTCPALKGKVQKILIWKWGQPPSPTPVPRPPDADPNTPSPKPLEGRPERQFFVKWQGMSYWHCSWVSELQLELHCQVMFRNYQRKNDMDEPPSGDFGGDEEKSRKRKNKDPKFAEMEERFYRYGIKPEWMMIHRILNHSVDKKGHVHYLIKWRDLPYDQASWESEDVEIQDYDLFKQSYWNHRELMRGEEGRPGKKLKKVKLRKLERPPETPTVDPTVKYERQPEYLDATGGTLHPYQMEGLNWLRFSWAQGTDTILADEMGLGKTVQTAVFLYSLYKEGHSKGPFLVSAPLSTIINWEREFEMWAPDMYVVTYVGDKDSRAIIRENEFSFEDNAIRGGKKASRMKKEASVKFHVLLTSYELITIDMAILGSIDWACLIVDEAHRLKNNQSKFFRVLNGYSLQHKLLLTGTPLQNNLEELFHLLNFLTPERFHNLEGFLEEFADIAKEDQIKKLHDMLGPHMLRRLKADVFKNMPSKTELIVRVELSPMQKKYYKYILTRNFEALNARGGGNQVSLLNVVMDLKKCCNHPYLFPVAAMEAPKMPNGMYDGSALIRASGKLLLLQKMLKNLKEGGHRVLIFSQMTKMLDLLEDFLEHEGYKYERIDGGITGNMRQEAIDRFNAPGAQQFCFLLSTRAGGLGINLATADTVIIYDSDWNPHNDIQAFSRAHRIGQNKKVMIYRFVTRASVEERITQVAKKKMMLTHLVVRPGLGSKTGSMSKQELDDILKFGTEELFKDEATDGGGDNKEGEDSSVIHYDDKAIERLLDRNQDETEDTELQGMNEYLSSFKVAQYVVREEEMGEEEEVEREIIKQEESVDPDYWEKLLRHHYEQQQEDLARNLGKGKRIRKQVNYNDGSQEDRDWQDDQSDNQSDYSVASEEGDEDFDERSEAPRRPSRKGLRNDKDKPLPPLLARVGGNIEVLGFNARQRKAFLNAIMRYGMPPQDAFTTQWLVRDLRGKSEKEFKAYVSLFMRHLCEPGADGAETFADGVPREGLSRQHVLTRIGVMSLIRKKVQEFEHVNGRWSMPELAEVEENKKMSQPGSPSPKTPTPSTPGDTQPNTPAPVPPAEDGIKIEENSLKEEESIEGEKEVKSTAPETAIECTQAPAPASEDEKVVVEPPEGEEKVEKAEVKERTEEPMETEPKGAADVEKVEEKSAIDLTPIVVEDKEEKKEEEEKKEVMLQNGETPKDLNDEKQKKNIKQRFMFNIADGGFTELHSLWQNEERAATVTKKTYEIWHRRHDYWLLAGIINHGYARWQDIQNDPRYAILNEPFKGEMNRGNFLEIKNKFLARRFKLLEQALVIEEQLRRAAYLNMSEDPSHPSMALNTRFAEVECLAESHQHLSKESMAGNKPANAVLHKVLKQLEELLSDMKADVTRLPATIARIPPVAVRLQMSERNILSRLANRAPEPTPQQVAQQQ
protocol-description: FRET-based nucleosome repositioning assay (EpiDyne-FRET)
cond: IC50 against Mi-2β, Mi-2β chromatin modulatory activity, n = 3
metric: IC50 (nM)

compound	system-under-test	units-symbol	measured-result
Cn1c(=O)[nH]c2ccc(-c3cccc(C(=O)NC4CCn5ccnc5C4)c3)cc21 (stereo not shown)	recombinant purified human Mi-2β protein (Homo sapiens)	nM	82
